For each of the molecules below, state its Kb.
study.target: angiotensin II (AII) contraction of rabbit aortic rings (Oryctolagus cuniculus)
Construct: The thoracic aorta was removed, cleaned of adherent fat and connective tissue and then cut into 3-mm ring segments; from tissue; host or cells: rabbit thoracic aorta rings, endothelium removed
Sequence (P34976 whole entry): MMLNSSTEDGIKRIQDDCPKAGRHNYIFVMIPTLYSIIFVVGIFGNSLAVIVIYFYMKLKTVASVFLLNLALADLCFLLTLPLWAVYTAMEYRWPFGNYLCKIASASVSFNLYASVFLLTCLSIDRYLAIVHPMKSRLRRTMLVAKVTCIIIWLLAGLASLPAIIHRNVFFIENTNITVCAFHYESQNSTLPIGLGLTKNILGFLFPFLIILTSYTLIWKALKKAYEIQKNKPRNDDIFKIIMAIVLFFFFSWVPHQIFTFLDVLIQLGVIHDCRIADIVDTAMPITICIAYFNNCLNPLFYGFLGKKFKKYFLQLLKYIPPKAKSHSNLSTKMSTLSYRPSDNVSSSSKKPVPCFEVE
assay.summary: In vitro myotropic screening assay for AII antagonists in rabbit aortic rings
Format: cell-based
details: pA2 determined according to Schild
Give bare numbers, in nM.

Worked set:
> print(dat)
                                smiles.text                              study.target  measurement.type  unit.tag  recorded.number
1  CCCc1nc2ccc(=O)ccc2n1Cc1ccc(-c2ccccc2C(=O)O)cc1  angiotensin II (AII) contraction of rabbit aortic rings (Oryctolagus cuniculus)                Kb        nM             1260
2  CCCc1nc2cc(C(=O)O)c(=O)c(C(=O)O)cc2n1Cc1ccc(-c2ccccc2C(=O)O)cc1  angiotensin II (AII) contraction of rabbit aortic rings (Oryctolagus cuniculus)                Kb        nM             1000
3  CCCCc1nc2ccc(=O)ccc2n1Cc1ccc(-c2ccccc2C(=O)O)cc1  angiotensin II (AII) contraction of rabbit aortic rings (Oryctolagus cuniculus)                Kb        nM             1260
4  CCCCCc1nc2cc(C)c(=O)c(C)cc2n1Cc1ccc(-c2ccccc2C(=O)O)cc1  angiotensin II (AII) contraction of rabbit aortic rings (Oryctolagus cuniculus)                Kb        nM             7940
5  CCCCc1nc2cc(C(=O)O)c(=O)c(C(=O)O)cc2n1Cc1ccc(-c2ccccc2C(=O)O)cc1  angiotensin II (AII) contraction of rabbit aortic rings (Oryctolagus cuniculus)                Kb        nM              251
6  CCCCc1nc2cc(-c3ccccc3)c(=O)c(-c3ccccc3)cc2n1Cc1ccc(-c2ccccc2C(=O)O)cc1  angiotensin II (AII) contraction of rabbit aortic rings (Oryctolagus cuniculus)                Kb        nM              316

API: the following record is the query input.
IN: Under angiotensin II (AII) contraction of rabbit aortic rings (Oryctolagus cuniculus), report Kb for CCCCc1nc2cc(C)c(=O)c(C)cc2n1Cc1ccc(-c2ccccc2C(=O)O)cc1
OUT: 1000
